This collection of values is drawn from patent US4081441A.

MEASUREMENT_DESCRIPTION: Mouse blood (plasma) antibiotic levels after single intramuscular dose
Format: in vivo
MEASUREMENT_CONDITIONS: im, 40 mg/kg, mice, 40 mg./kg. i.m., 60 min., Ave. of Tests 1 and 2, read-out: Blood Level
MEASUREMENT_KIND: concentration at 1 h

[
  {
    "SMILES": "CC1(C)S[C@@H]2[C@H](NC(=O)[C@H](NC(=O)c3n[nH]c(=O)[nH]c3=O)c3ccc(O)cc3)C(=O)N2[C@H]1C(=O)O",
    "MEASUREMENT_KIND": "concentration at 1 h",
    "RESULT": "5300 ng/mL"
  }
]
